# Tested on: normolipemic rats
# Assay Remarks: Reduction of serum lipid values in normolipemic rats (8 days oral)
# Format: in vivo, rat
# Run Parameters: 100 mg/kg/day p.o., 8 doses, male rats, column A
# Protocol: 1. Male rats having a normal serum lipid content were treated for eight days with different daily doses mentioned in Table 1. The values given in that Table stand for a change in the serum concentrations of certain lipid classes. […] Generally, prior to and after the treatment, blood samples were taken and the concentration of cholesterol in the serum was determined according to the method of Lauber and Richterich and that of triglycerides according to the method of Eggstein and Kreutz. […]
Readout Type: serum cholesterol, change in percentage (A: referred to the initial value) (%)
Provide the reading as a plain figure in %.

Sample records with serum cholesterol, change in percentage (A: referred to the initial value):
>>> observed("CC(C)(C)c1cc(C(C)(CCC(=O)OCCOC(=O)CCC(C)(c2ccc(O)c(C(C)(C)C)c2)c2ccc(O)c(C(C)(C)C)c2)c2ccc(O)c(C(C)(C)C)c2)ccc1O")
-48
>>> observed("CCCCOC(=O)CC(C)(c1ccc(O)c(C(C)(C)C)c1)c1ccc(O)c(C(C)(C)C)c1")
-29
>>> observed("CC(C)(C)c1cc(C(C(=O)O)c2cc(C(C)(C)C)c(O)c(C(C)(C)C)c2)cc(C(C)(C)C)c1O")
-61
>>> observed("CCOC(=O)C(C)(C)Oc1ccc(Cl)cc1 [Clofibrat, reference compound]")
-22

Now consider the entry below.
Prompt line: Report the value of serum cholesterol, change in percentage (A: referred to the initial value) obtained on normolipemic rats for `CCCCOC(=O)CCC(C)(c1ccc(O)c(C(C)(C)C)c1)c1ccc(O)c(C(C)(C)C)c1` .
Response line: -37

###

Items are presented alongside their recorded LD50.
# Assay Remarks: in vivo
# Run Parameters: mouse, po

For orientation, consider the following solved cases.
>>> observed("CCCCOC(=O)CC(C)(c1ccc(O)c(C(C)(C)C)c1)c1ccc(O)c(C(C)(C)C)c1")
"> 8000 mg/kg"
>>> observed("CC(C)(C)c1cc(C(C)(CC(=O)OCCCCCCOC(=O)CC(C)(c2ccc(O)c(C(C)(C)C)c2)c2ccc(O)c(C(C)(C)C)c2)c2ccc(O)c(C(C)(C)C)c2)ccc1O")
"> 8000 mg/kg"
>>> observed("CCCCOC(=O)CC(C)(c1ccc(O)c(C)c1)c1ccc(O)c(C)c1")
"> 8000 mg/kg"

Read the next record carefully.
Prompt line: Item `CC(C)(C)c1cc(C(C(=O)O)c2cc(C(C)(C)C)c(O)c(C(C)(C)C)c2)cc(C(C)(C)C)c1O` : provide LD50
Response line: 6000 to 8000 mg/kg

Data provenance is patent US4007282A.
